- targetSystem: T1, CD137-hisFc fusion protein (Sino Biological Cat 10041-H03H) (human, UniProt Q07011 24-186)
- T1 construct: Bought; also called recombinant human CD137 (fused with human Fc and His tag); not shown: His tag and human Fc
- experimentDescription: BLI Octet, Fab;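 note: fab fragments expressed in E. coli, binding to human CD137 measured on Octet RED96, kinetics fitted with a 1:1 Langmuir model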
pKd: −log10 of the molar value.
Consider the following binders and their measured pKd readings.
observedProperty: pKd

INSERT INTO measurements (binder, measurednumber) VALUES
  ('Fab 5359 (Fab, V domains shown, Fab from E. coli; also called VH27/VL27) VH: EVQLVESGGGLVQPGGSLRLSCAASGFSLSTSGVGVGWIRQAPGKGLEWLALIDWADDKYYSPSLKSRLTISRDNSKNTLYLQLNSLRAEDTAVYYCARGGSDAVLGDWFAYWGQGTLVTVSS VL: DIQLTQSPSSLSASVGDRVTITCRASQGIGSYLAWYQQKPGKAPKLLIYDASNLETGVPSRFSGSGSGTDFTLTISSLQPEDFATYYCQQGYSIWTFGQGTKVEIKR', 9.15),
  ('Fab 5342 (Fab, V domains shown, Fab from E. coli; also called VH21/VL21) VH: EVQLVESGGGLVQPGGSLRLSCAASGFSLSTGGVAVGWIRQAPGKGLEWLALIDWAGDKSYSTSLKSRLTISRDNSKNTLYLQLNSLRAEDTAVYYCAREGEDAVTGDWFAYWGQGTLVTVSS VL: DIQLTQSPSSLSASVGDRVTITCQASQDIRTYLAWYQQKPGKAPKLLIYDASNRATGIPSRFSGSGSGTDFTLTISSLQPEDFATYYCQQGYSIWTFGQGTKVEIKR', 7.41);
